Provenance of the data: PubChem BioAssay

# test-protocol: MM1S cell viability effects, profiling panel, calcein-AM fluorescence, 48 h, basal (AID 1165);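 further: viability of MM1S multiple myeloma cells under basal unstimulated conditions; test concentration not given here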
# condition-notes: higher = more signal
measured-property: z-score

compound=C[C@@H]1CC[C@@H](C(=O)O)N[C@H]1c1cccc(N2CCOCC2)c1 experimental_result=0.401
compound="CC(C)=NOC(C)CN1CCCc2nc(C)c(C)cc21 (stereo unspecified)" experimental_result=-0.237
compound="CCN(CC)CC(O)CN1CCCCc2nc(C)c(C)cc21 (stereo unspecified)" experimental_result=0.288
compound=CCOC(=O)NN=C1C[C@@H](O)[C@@H](O)[C@@H]2[C@@H]3C(=O)N(c4ccc(F)cc4F)C(=O)[C@@H]3CC[C@H]12 experimental_result=0.593
compound=O=C1[C@H]2[C@H]3[C@H](O)[C@H](O)CC(=NO[C@@H]4O[C@H](CO)[C@@H](O)[C@H](O)[C@H]4O)[C@@H]3CC[C@H]2C(=O)N1c1cccc(Oc2ccccc2)c1 experimental_result=0.365
compound=CON=C(C)CCN1CCc2nc(-c3ccccc3)c(-c3ccccc3)cc2C1 experimental_result=-2.98
compound=CC(CCN1CCCCc2nc(C)c(C)cc21)=NO[C@H](C)c1cn([C@@H]2COC[C@H]2O)nn1 experimental_result=0.287
compound="COC(=O)[C@H](C)NC(=O)CCC1CC(OC(=O)NCc2cccc3ccccc23)CC2(CCCC(COC(=O)NCCCN3CCCC3=O)O2)O1 (stereo partly specified)" experimental_result=0.145
compound=CC(C)=NO[C@H](C)c1cn([C@@H]2COC[C@H]2O)nn1 experimental_result=0.0495
compound=CCN1C(=O)[C@H]2[C@H]3[C@H](O)[C@H](O)CC(=NOC[C@@H](O)COCc4ccco4)[C@H]3CC[C@H]2C1=O experimental_result=0.133
compound="CC(=O)OC[C@H]1O[C@H](CC=NOC(C)CN2CCCCc3nc(C)c(C)cc32)C=C[C@@H]1OC(C)=O (stereo partly specified)" experimental_result=0.0965
compound=COC(=O)[C@@H]1CC[C@H](C)[C@@H](c2ccc(Br)cc2)N1C[C@@H](O)CN=[N+]=[N-] experimental_result=-0.682
compound=CO[C@@H]1COC(=O)CC=C[C@H](C)[C@H](OC)COC(=O)[C@@H]2CCCN2C(=O)CC=C[C@H]1C experimental_result=0.0805
compound=CCc1cc2c(nc1CC)CCN(CCC(C)=NO[C@@H]1O[C@H](COC(C)=O)[C@@H](OC(C)=O)[C@H](OC(C)=O)[C@H]1OC(C)=O)C2 experimental_result=-2.58
compound="CCOC(=O)[C@H](CC(C)C)NC(=O)CCC1CC(OC(=O)NCc2ccc3c(c2)OCO3)CC2(CCCC(COC(=O)NCCc3ccccc3OC)O2)O1 (stereo partly specified)" experimental_result=-1.32
compound=CC(CCC(=O)OC[C@H]1O[C@H](C#Cc2ccccc2)C=C[C@@H]1Oc1ccc(C)cc1)=NO[C@@H](C)c1cc(-c2c(C)cc(C)cc2C)no1 experimental_result=-0.0941

* * *

# test-protocol: basal RPMI8226 viability, no added stimulus, profiling panel, cell-based, calcein-AM fluorescence, 48 h, PK04 Diversity Set (AID 1166);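 further: cells grown under basal conditions without added stimulus; test concentration not given here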
# condition-notes: RPMI8226 myeloma viability, higher = more signal
measured-property: z-score

molecule=CCOC(=O)CCN1C(=O)[C@H]2[C@H]3[C@H](O)[C@H](O)CC(=NOCC=C(C)CCC=C(C)C)[C@H]3CC[C@H]2C1=O measured_property=z-score experimental_result=0.15
molecule=CCOC(=O)CCN1C(=O)[C@H]2[C@H]3[C@H](O)[C@H](O)CC(=NO[C@@H]4O[C@H](CO)[C@@H](O)[C@H](O)[C@H]4O)[C@@H]3CC[C@H]2C1=O measured_property=z-score experimental_result=0.238
molecule="COC(=O)[C@H](C)NC(=O)CCC1CC(OC(=O)NCc2ccc3c(c2)OCO3)CC2(CCCC(COC(=O)NCCC(C)C)O2)O1 (some centres not stated)" measured_property=z-score experimental_result=-2.13
molecule=CC(C)(C)N1C(=O)[C@H]2[C@H]3[C@H](O)[C@H](O)CC(=NOC[C@@H](O)COCc4ccco4)[C@@H]3CC[C@H]2C1=O measured_property=z-score experimental_result=-1.63
molecule=CCCNC(=O)OC[C@H]1O[C@H](CCON=C[C@@H](C)[C@H](OCc2ccccc2)C(C)C)C=C[C@@H]1Oc1ccc(OC)cc1 measured_property=z-score experimental_result=-0.0657
molecule="CCOC(=O)[C@H](CC(C)C)NC(=O)CCC1CC(OC(=O)NCCc2ccc(F)cc2)CC2(CCCC(COC(=O)NCc3cccc4ccccc34)O2)O1 (some centres not stated)" measured_property=z-score experimental_result=-3.14
molecule=Cc1ccc2[nH]c3nc(CCCn4ccnc4-c4ccccc4)nnc3c2c1 measured_property=z-score experimental_result=0.392

* * *

# tested-target: Torsin-1A (Homo sapiens) (UniProt O14656)
# Sequence (O14656 whole entry, looked up): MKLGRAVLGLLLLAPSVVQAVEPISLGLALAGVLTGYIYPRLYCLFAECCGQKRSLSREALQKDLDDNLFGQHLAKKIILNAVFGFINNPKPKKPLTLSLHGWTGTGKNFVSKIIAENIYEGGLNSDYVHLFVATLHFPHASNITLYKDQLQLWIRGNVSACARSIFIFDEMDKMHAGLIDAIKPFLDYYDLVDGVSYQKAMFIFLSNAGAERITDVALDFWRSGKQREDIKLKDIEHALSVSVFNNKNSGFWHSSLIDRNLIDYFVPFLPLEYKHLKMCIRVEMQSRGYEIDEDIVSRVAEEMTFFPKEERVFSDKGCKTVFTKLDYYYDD
# test-protocol: torsin A binders from cell lysate, primary screen, small-molecule microarray, wild-type, 635/667 nm (AID 1149)
# condition-notes: COS7 hTOR1A-WT lysate, 635 nm fluorescence, higher = more signal
Assign class by composite z-score: not lower than 0.5 means label 1; lower than 0.5 means label 0.

compound=Cc1ccc(S(=O)(=O)N[C@@H]2COC(=O)CC=C[C@@H](C)[C@H](NS(=O)(=O)c3ccc(C)cc3)COC(=O)[C@H](C)NC(=O)CC=C[C@H]2C)cc1 category_label="label 0"
compound=COc1ccc(COC(=O)NN=C2C[C@@H](O)[C@@H](O)[C@@H]3[C@@H]4C(=O)N(Cc5ccccc5)C(=O)[C@@H]4CC[C@@H]23)cc1 category_label="label 0"
compound=CC1(C)O[C@H]2O[C@H]([C@H](O)CON=C3[C@H]4CCn5c(=O)n(-c6ccccc6)c(=O)n5[C@H]4[C@H](O)[C@@H]4O[C@H]34)[C@H](O)[C@H]2O1 category_label="label 0"
compound=CC(C)=CCCC(C)=CCON=C1[C@H]2CCn3c(=O)n(-c4ccccc4)c(=O)n3[C@H]2[C@H](O)[C@@H]2O[C@H]12 category_label="label 1"
compound=COCC#Cc1ccc([C@@H]2N[C@H](C(=O)O)CC[C@H]2C)cc1 category_label="label 0"
compound="CC(CCC(=O)OC[C@H]1O[C@H](C#Cc2ccccc2)C=C[C@@H]1Oc1ccc(C)cc1)=NOC(C)CN1CCCCc2nc(C)c(C)cc21 (stereo not given in full)" category_label="label 0"
compound=CCN1C(=O)[C@H]2[C@H]3[C@H](O)[C@H](O)CC(=NOCC=C(C)CCC=C(C)C)[C@@H]3CC[C@H]2C1=O category_label="label 1"
compound=COC(=O)CC=C[C@@H](C)[C@@H](C=NOC[C@@H](O)COCc1ccco1)OC category_label="label 1"
compound=O=C1C=C[C@@H](O)[C@@H]2[C@@H]3C(=O)N(Cc4ccc5c(c4)OCO5)C(=O)[C@@H]3CC[C@@H]12 category_label="label 0"
compound=CC(CCN1CCCc2nc(C)c(C)cc21)=NO[C@@H](C)c1cn([C@H](CO)Cc2ccccc2)nn1 category_label="label 1"
compound=Cc1ccc2[nH]c3nc(CCCn4ccnc4-c4ccccc4)nnc3c2c1 category_label="label 0"
compound=CC(=O)OC[C@H]1O[C@H](C#CCC2CCCCC2)C=C[C@@H]1OC(C)=O category_label="label 0"
compound=CO[C@@H]1C=CCC(=O)N[C@@H](C)C(=O)OC[C@@H](NS(=O)(=O)c2ccc(C)cc2)[C@H](C)C=CCC(=O)OC[C@H]1C category_label="label 1"
compound=O=C1C2=CC[C@H]3C(=O)N(C[C@@H]4CCCO4)C(=O)[C@H]3[C@H]2[C@H](O)[C@@H]2O[C@H]12 category_label="label 1"
compound="COC(=O)[C@H](C)NC(=O)CCC1CC(OC(=O)NCCc2ccc(F)cc2)CC2(CCCC(COC(=O)NCc3ccccc3)O2)O1 (stereo not given in full)" category_label="label 0"

* * *

Below: a set of entries, each annotated with reported z-score.
# test-protocol: P. aeruginosa biofilm formation inhibitors, primary screen, PAO1 strain, BacTiter-Glo luminescence, LB-PBS (AID 1144)
# condition-notes: 12 h, higher = more signal
measured-property: z-score

compound="O=C1CCCC=C1C(O)COCc1ccccc1 (stereo not drawn)" experimental_result=0.616
compound=CC(C)[C@H](NC(=O)OC(C)(C)C)[C@@H](O)CC(=O)C(C)(C)C experimental_result=-1.09
compound=COc1ccc(COC(=O)NN=C2C[C@@H](O)[C@@H](O)[C@@H]3[C@@H]4C(=O)N([C@@H](C)c5ccccc5)C(=O)[C@@H]4CC[C@H]23)cc1 experimental_result=-0.183
compound=CCc1cc2c(nc1CC)CCN(CCC(C)=NOCC[C@@H]1C=C[C@H](OC(C)=O)[C@@H](COC(C)=O)O1)C2 experimental_result=-0.0152
compound="C[C@@H]1CC[C@H]2C(=O)OC(Cc3ccccc3)CN2[C@H]1c1ccc(Br)cc1 (stereo partly drawn)" experimental_result=0.7
compound=CC(C)=CCCC(C)=CCON=C1C[C@@H](O)[C@@H](O)[C@@H]2[C@@H]3C(=O)N(c4cccc(Oc5ccccc5)c4)C(=O)[C@@H]3CC[C@H]12 experimental_result=1.73
compound="CCOC(=O)[C@H](CC(C)C)NC(=O)CCC1CC(OC(=O)NCc2ccc3c(c2)OCO3)CC2(CCCC(COC(=O)NCCc3ccccc3OC)O2)O1 (stereo partly drawn)" experimental_result=0.162
compound=COc1ccc(COC(=O)NN=C2C[C@@H](O)[C@@H](O)[C@@H]3[C@@H]4C(=O)N(Cc5ccccc5)C(=O)[C@@H]4CC[C@@H]23)cc1 experimental_result=0.99
